system: MDA-MB-435; experiment: NCI tumour cell line growth inhibition, 48 h
Record form. Attribute: TGI. Fill in for each entry.
Give bare numbers, in µM.

Use these answered entries as a reference point.
In [3]: df
Out[3]:
                                   compound  measure_unit  observed_measurement
0   CCOC(=O)c1c(Br)c(-c2ccc(Br)cc2)c(Br)n1C            µM                  22.6
1  CCOC(=O)C(=Cc1ccccc1[N+](=O)[O-])C(=O)OCC            µM                  12.1
2  COc1cc2c3c(n(CCCNCCN)c(=O)c2cc1OC)-c1cc2c(cc1C3=O)OCO2            µM                  4.56

Take each entry in turn and give its TGI.
1. Clc1cc2c(c(CSC3=NCN(CC4CC4)CN3)c1)OCOC2
2. Cc1ccc(OCC2OC(n3cnc4nc(Cl)nc(Cl)c43)CC2Oc2ccc(C)cc2)cc1 (stereo unspecified)
3. COC1=C(N=[N+]=[N-])C(=O)c2ncccc2C1=O
4. CC[C@@]1(O)C(=O)NCc2c1cc1n(c2=O)Cc2cc3c(N)cccc3nc2-1
5. COc1ccc2c(Nc3ccc(NS(C)(=O)=O)cc3)c3ccccc3nc2c1

74.3
24.3
4.41
18.5
2.4

Hi! Can you tell me TGI for each of these compounds?
1. C#CC1(O)C(COP(=O)(O)OC2CC(n3cc(F)c(=O)[nH]c3=O)OC2CO)OC(n2ccc(N)nc2=O)C1O (stereo unspecified)
2. COc1cc(/C=C\[N+](=O)[O-])ccc1OCc1ccccc1

0.545
10.3

----------
system: HL-60(TB) leukemia; assay: NCI tumour cell line growth inhibition, 48 h
Give TGI for every item shown.

// below: answered molecules
                                   molecule  observed_measurement
0  COC(=O)C(CCc1ccccc1I)C1=CCC2(CC1)OCCO2 (stereo not given)               17.4 µM
1  Nc1nc2c(c(=O)[nH]1)N(C=O)C(CNc1ccc(C(=O)N[C@@H](CCC(=O)O)C(=O)O)cc1)CN2 (stereo not given in full)             > 31.4 µM
2      Cc1nc2c(n1C(C)(C)C)C(=O)c1ccccc1C2=O              > 100 µM
3          COc1ccccc1NC(=O)n1nc(N)c2ccccc21              > 100 µM
4        O=C(O)CCCCCOc1cccnc1/C=N/NC1=NCCN1              > 100 µM
5  NC1CCN(c2nc(Nc3cccc(C(F)(F)F)c3)c3c(=O)[nH]ccc3n2)CC1               2.41 µM
6  CCCCCCCCCCCCCCCCSCC(COC)COP(=O)([O-])OCC[N+](C)(C)C (stereo not given)                4.4 µM
7  COC(=O)C(C)(N=Cc1ccccc1)c1ccccc1 (stereo not given)              > 100 µM
8  O=C(CC/C=C(/CS(=O)(=O)c1ccccc1)S(=O)(=O)c1ccccc1)c1ccccc1              > 100 µM

// next item, TGI requested
Recorded TGI for CC(=O)O[C@H]1CC[C@@]2(C)C(=CC[C@H]3C4=CC=C(C(C)=O)[C@@]4(C)CCC32)C1 (stereo not given in full) , please?
> 100 µM

----------
test system: ACHN renal; test: NCI tumour cell line growth inhibition, 48 h
MEASUREMENT NAME: TGI

                                   compound  observed_measurement
0  O=C(c1ccc2ncc(-c3nc(NC4CC4)ncc3F)n2c1)N1CCOCC1               12.4 µM
1                O=C1CSc2nc3ccccc3n2/C=N\N1              > 100 µM
2  CC(C)CCC[C@@H](C)[C@H]1CCC2C3CC=C4C[C@@H](Oc5c6ccccc6nc6ccccc56)CCC4C3CCC21 (stereo not given in full)               > 50 µM
3    CCOc1ccc(/C=C(\Cl)c2ccc(OC)c(OC)c2)cc1              > 100 µM

May I ask what TGI has been recorded for CC(=O)OCCOCNC(=S)N/N=C(\C)c1cnc2ccccc2n1 ?
> 100 µM

----------
Could you please report measured TGI for the items listed next?
test system: COLO 205 colon; assay: NCI tumour cell line growth inhibition, 48 h

In [3]: df
Out[3]:
                                 compound  observed_measurement
0                  C=CCOCn1cnc2c(N)ncnc21              > 100 µM
1  CCOC(=O)N1CCN(c2ccc3c(C)cc(C)nc3n2)CC1              > 100 µM

Would you be so kind as to report TGI for each listed record?
1. CC(=O)O[C@H]1CC[C@@]2(C)C(=CC[C@H]3[C@@H]4C/C(=C\c5cccc(OCCN6CCOCC6)c5)[C@H](OC(C)=O)[C@@]4(C)CC[C@@H]32)C1
2. Cn1c(=O)nc2n(-c3cccc(F)c3)c3ccccc3nc-2c1=O
3. O=C(Nc1c[nH]c(=O)[nH]c1=O)C(Cl)Cl

1. 19.4 µM
2. 19 µM
3. > 100 µM

Hi! Can you tell me TGI for each of these compounds?
1. CC(=O)O[C@H]1CC[C@@]2(C)C(=CC[C@H]3C4=CC=C(C(C)=O)[C@@]4(C)CCC32)C1 (stereo not given in full)
2. COC(=O)c1cc(NC(=O)c2cc(NC(=O)c3cc([N+](=O)[O-])cn3C)cn2C)cn1C
3. COC(=O)C(CCc1ccccc1I)C1=CCC2(CC1)OCCO2 (stereo not given)
4. O=C(N=C1SCCN1C(=O)C(C(F)(F)F)C(F)(F)F)C(C(F)(F)F)C(F)(F)F
5. CCCCCC(=O)c1ccc2[nH]c3c(C)cc([N+](=O)[O-])c(C)c3c2c1

39.6 µM
> 100 µM
> 100 µM
> 100 µM
> 100 µM

----------
test system: CCRF-CEM leukemia; test: NCI tumour cell line growth inhibition, 48 h
MEASUREMENT NAME: TGI

Please review the entries below; each comes with its answer.
>>> print(df.to_string())
                                   compound  measurement_name  observed_measurement
0  COc1cc(C2SCC(=O)N2c2ccc(-n3c(-c4ccccc4)nc4ccccc4c3=O)cc2)ccc1O (stereo not given)               TGI              > 100 µM
1  Cc1nc2sc(C(=O)Nc3cccc4ccccc34)c(N)c2cc1C(=O)c1ccccc1               TGI               > 50 µM
2       Cn1ccn2c3nc4ccccc4nc3c(=O)c(C#N)c12               TGI              > 100 µM
3          C(=N\OCc1ccccc1)/c1ncccc1C1OCCO1               TGI              > 100 µM
4  CCN(CC)CCCOC(=O)/C=C/c1c(C)[nH]c(=O)[nH]c1=O               TGI              > 625 µM
5                             OCCSCc1ccccc1               TGI              > 100 µM
6  COC(=O)C(C)(N=Cc1ccccc1)c1ccccc1 (stereo not given)               TGI              > 100 µM
7  CC(=O)[C@@H]1CCC=C2CC[C@]3(C)[C@@H](CC[C@@H]4[C@@]5(C)CCCNC(C)(C)[C@@H]5CC[C@]43C)[C@H]21               TGI               5.63 µM
8    O=[N+]([O-])/C(C(Cl)=C(Cl)Cl)=C1\NCCO1               TGI               66.7 µM
9                    Clc1nc(Cl)c(Cl)c(Cl)n1               TGI               15.2 µM

Each of the following entries comes with a recorded value; kindly state TGI for each.
1. Cn1c(=O)c2c(nc3n(Cc4ccccc4)c(=O)c(NCCBr)cn23)n(C)c1=O
2. C=C1C(=O)O[C@H]2[C@H]1CC/C(COC(=O)NCc1ccc(Cn3c(=O)sn(CCCCl)c3=O)cc1)=C\CC[C@@]1(C)O[C@@H]21
3. COc1ccccc1-c1cc(=O)c2ccccc2[nH]1
4. CN1NC2(CCCCC2)ON=C1c1ccccc1
5. CC/C=C\C[C@H](O)C/C=C1/C(=O)C=C[C@@H]1C/C=C\CCCC(=O)N(C)C

1. > 100 µM
2. 4.03 µM
3. > 100 µM
4. > 100 µM
5. 5.61 µM
